Listing of recorded inhibition at 1 µM by entry.
Target: panel of 255 wild-type kinases (Homo sapiens)
Sequence (P51817 1-358): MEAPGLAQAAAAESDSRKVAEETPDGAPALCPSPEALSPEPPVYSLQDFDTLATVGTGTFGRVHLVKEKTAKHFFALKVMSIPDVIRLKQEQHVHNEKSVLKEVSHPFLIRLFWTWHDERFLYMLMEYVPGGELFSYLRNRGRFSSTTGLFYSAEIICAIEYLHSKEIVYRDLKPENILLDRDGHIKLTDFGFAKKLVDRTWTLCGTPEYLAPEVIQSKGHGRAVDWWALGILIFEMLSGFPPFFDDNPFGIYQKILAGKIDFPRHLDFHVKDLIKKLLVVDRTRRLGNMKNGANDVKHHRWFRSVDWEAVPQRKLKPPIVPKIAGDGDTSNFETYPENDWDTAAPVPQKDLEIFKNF
Assay: Kinase panel profiling at 1 µmol/L (MSA or IMAP), percentage inhibition
Type: biochemical
Conditions: kinase PRKX; 1 µmol/L single concentration; read-out: %-inhibition at 1 µmol/L, PRKX
# unit: % | format: bare number

input: Would you mind telling me what inhibition at 1 µM value was observed for Cn1cnc2c(F)c(Nc3ccc(Br)cc3F)c(C(=O)NOCCO)cc21 [binimetinib] ?
output: 2.57

input: Would you mind telling me what inhibition at 1 µM value was observed for Cc1nc(NC(=O)N2CCC[C@H]2C(N)=O)sc1-c1ccnc(C(C)(C)C(F)(F)F)c1 [alpelisib] ?
output: -4.49

input: Would you mind telling me what inhibition at 1 µM value was observed for COc1ccc(CN2C3CC2CN(c2ccc(-c4cc(OCC(C)(C)O)cn5ncc(C#N)c45)cn2)C3)cn1 [selpercatinib] ?
output: 55

input: Would you mind telling me what inhibition at 1 µM value was observed for COc1cc2ncnc(Nc3ccc(F)c(Cl)c3)c2cc1NC(=O)/C=C/CN1CCCCC1 [dacomitinib] ?
output: 0.677

input: Would you mind telling me what inhibition at 1 µM value was observed for CO[C@]1(C(=O)N[C@@H](C)c2ccc(-n3cc(F)cn3)nc2)CC[C@H](c2nc(C)cc(Nc3cc(C)[nH]n3)n2)CC1 [pralsetinib] ?
output: -0.557

input: Would you mind telling me what inhibition at 1 µM value was observed for CN1CCN(c2ccc(C(=O)Nc3n[nH]c4ccc(Cc5cc(F)cc(F)c5)cc34)c(NC3CCOCC3)c2)CC1 [entrectinib] ?
output: 2.19

input: Would you mind telling me what inhibition at 1 µM value was observed for C=CC(=O)N1CCC([C@@H]2CCNc3c(C(N)=O)c(-c4ccc(Oc5ccccc5)cc4)nn32)CC1 [zanubrutinib] ?
output: -1

input: Would you mind telling me what inhibition at 1 µM value was observed for C[C@H]1Oc2cc(cnc2N)-c2c(nn(C)c2C#N)CN(C)C(=O)c2ccc(F)cc21 [lorlatinib] ?
output: 3.38

input: Would you mind telling me what inhibition at 1 µM value was observed for CCn1c(=O)c(-c2cc(NC(=O)Nc3ccccc3)c(F)cc2Br)cc2cnc(NC)cc21 [ripretinib] ?
output: 0.705

input: Would you mind telling me what inhibition at 1 µM value was observed for COC(=O)N[C@@H](C)CNc1nccc(-c2cn(C(C)C)nc2-c2cc(Cl)cc(NS(C)(=O)=O)c2F)n1 [encorafenib] ?
output: 1.82

input: Would you mind telling me what inhibition at 1 µM value was observed for CCN1CCN(c2ccc(Nc3cc(N(C)C(=O)Nc4c(Cl)c(OC)cc(OC)c4Cl)ncn3)cc2)CC1 [infigratinib] ?
output: -3.53

input: Would you mind telling me what inhibition at 1 µM value was observed for C[C@H](Nc1ncnc2nc[nH]c12)c1cc2cccc(Cl)c2c(=O)n1-c1ccccc1 [duvelisib] ?
output: 0.385

input: Would you mind telling me what inhibition at 1 µM value was observed for CCc1nc(C(N)=O)c(Nc2ccc(N3CCC(N4CCN(C)CC4)CC3)c(OC)c2)nc1NC1CCOCC1 [gilteritinib] ?
output: 4

input: Would you mind telling me what inhibition at 1 µM value was observed for O=C(Nc1cnn2ccc(N3CCC[C@@H]3c3cc(F)ccc3F)nc12)N1CC[C@H](O)C1 [larotrectinib] ?
output: 0.637

input: Would you mind telling me what inhibition at 1 µM value was observed for Cn1cc(-c2cc3c(N4CCN(c5ncc([C@@](C)(N)c6ccc(F)cc6)cn5)CC4)ncnn3c2)cn1 [avapritinib] ?
output: 37

Numbers sourced from paper PMC9516332.
